biological target: NHERF2_2, Q15599; test: holdup assay; set-up: key: below the threshold = too weak to quantify, mostly under pKd 3.1 to 4; conditions: plain residues with an end cap or a label only (N-terminal biotin on a linker: ttds)
Sequence (Q15599 142-238): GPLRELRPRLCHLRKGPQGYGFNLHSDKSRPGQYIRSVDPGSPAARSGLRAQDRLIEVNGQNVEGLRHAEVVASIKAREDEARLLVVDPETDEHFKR

[
  {
    "binder": "PKTPPTDTSV [KIR3DL3, Q8N743]",
    "pKd": "below the threshold"
  },
  {
    "binder": "ERKLSSESQV [LRP4, O75096]",
    "pKd": "below the threshold"
  },
  {
    "binder": "SRPQRTQTQV [HPV67-E6, A4U7F2]",
    "pKd": "below the threshold"
  }
]
